Give protein stability index for every item shown.
B1: WEE1 (parent)
chain: FLGSSFSPVRCGGPGDASPRGCGA

Variants of: B1
Assay: protein stability index of a GFP-peptide fusion (GPS, HEK-293T) (PSI 1-6); higher = more stable;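 further: lentivirally expressed fusions sorted by FACS into six bins by GFP to DsRed ratio, PSI derived from sequencing read proportions per bin multiplied by bin number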
Details: c terminus: a fixed tail appended
No unit in the answer, please; the number alone is enough.

Requested field: protein stability index. Item: "G15A"
2.45

Requested field: protein stability index. Item: "F1K"
2.95

Requested field: protein stability index. Item: "G15P"
1.75

Requested field: protein stability index. Item: "S5N"
1.92

Requested field: protein stability index. Item: "R20D"
2.17

Requested field: protein stability index. Item: "R20Q"
2.12

Requested field: protein stability index. Item: "S4A"
1.79

Requested field: protein stability index. Item: "G13M"
1.58

Requested field: protein stability index. Item: "P14E"
2.22

Requested field: protein stability index. Item: "S18I"
1.75

Requested field: protein stability index. Item: "G13H"
1.87

Requested field: protein stability index. Item: "A24Y"
1.75

Requested field: protein stability index. Item: "L2N"
2.45

Requested field: protein stability index. Item: "A17S"
1.39

Requested field: protein stability index. Item: "P19W"
2.52

Requested field: protein stability index. Item: "G21Y"
1.69

Requested field: protein stability index. Item: "C11F"
2.19

Requested field: protein stability index. Item: "G15F"
2.6

Requested field: protein stability index. Item: "F1P"
3.4

Requested field: protein stability index. Item: "C22L"
1.75

Requested field: protein stability index. Item: "L2C"
1.95

Requested field: protein stability index. Item: "P14S"
2.24
